# Test system: U-251
# assayRemarks: Inhibition of cell proliferation of human U251 cells assessed as cell viability at 100 uM after 72 hrs by sulforhodamine B assay
# Format: functional
# reportedConditions: U-251, 72 h, read-out: Activity

- molecule: "CC(C)=CCC[C@@](C)(O)[C@H]1CC[C@]2(C)[C@@H]1[C@H](O)C[C@@H]1[C@@]3(C)CC[C@H](O[C@@H]4O[C@H](CO)[C@@H](O)[C@H](O)[C@H]4O[C@@H]4O[C@H](CO)[C@@H](O)[C@H](O)[C@H]4O)C(C)(C)[C@@H]3CC[C@]12C"
  viability at 100 µM / %: 77.5
- molecule: "CC1(C)CC[C@]2(C(=O)O)CC[C@]3(C)C(=CC[C@@H]4[C@@]5(C)CC[C@H](O)C(C)(C)[C@@H]5CC[C@]43C)[C@@H]2C1"
  viability at 100 µM / %: 67.8
- molecule: "C[C@@H]1O[C@@H](O[C@H]2[C@H](OC(=O)[C@]34CCC(C)(C)C[C@H]3C3=CC[C@@H]5[C@@]6(C)CC[C@H](O[C@@H]7O[C@H](CO[C@@H]8OC[C@H](O)[C@H](O)[C@H]8O[C@@H]8OC[C@@H](O)[C@H](O)[C@H]8O)[C@@H](O)[C@H](O)[C@H]7O)C(C)(C)[C@@H]6CC[C@@]5(C)[C@]3(C)CC4)O[C@H](CO)[C@@H](O)[C@@H]2O)[C@H](O)[C@H](O)[C@H]1O[C@@H]1OC[C@@H](O)[C@H](O[C@@H]2OC[C@@H](O)[C@H](O)[C@H]2O)[C@H]1O"
  viability at 100 µM / %: 91.8
- molecule: "CC1(C)CC[C@]2(C(=O)O)[C@H](O)C[C@]3(C)C(=CC[C@@H]4[C@@]5(C)CC[C@H](O[C@@H]6O[C@H](CO[C@@H]7OC[C@H](O)[C@H](O)[C@H]7O[C@@H]7OC[C@@H](O)[C@H](O)[C@H]7O)[C@@H](O)[C@H](O)[C@H]6O)C(C)(C)[C@@H]5CC[C@]43C)[C@@H]2C1"
  viability at 100 µM / %: 88.8
- molecule: "CC(C)=CCC[C@](C)(O[C@@H]1O[C@H](CO[C@@H]2O[C@@H](CO)[C@H](O)[C@H]2O)[C@@H](O)[C@H](O)[C@H]1O)[C@H]1CC[C@]2(C)[C@@H]1[C@H](O)C[C@@H]1[C@@]3(C)CC[C@H](O[C@@H]4O[C@H](CO)[C@@H](O)[C@H](O)[C@H]4O[C@@H]4O[C@H](CO)[C@@H](O)[C@H](O)[C@H]4O)C(C)(C)[C@@H]3CC[C@]12C [GINSENOSIDE RC]"
  viability at 100 µM / %: 87.7
- molecule: "COc1c(O)ccc(O)c1-c1cc(=O)c2c(O)cc(O)c(OC)c2o1"
  viability at 100 µM / %: 87.5
- molecule: "CC(C)=CCC[C@](C)(O[C@@H]1O[C@H](CO[C@@H]2OC[C@@H](O)[C@H](O)[C@H]2O)[C@@H](O)[C@H](O)[C@H]1O)[C@H]1CC[C@]2(C)[C@@H]1[C@H](O)C[C@@H]1[C@@]3(C)CC[C@H](O[C@@H]4O[C@H](CO)[C@@H](O)[C@H](O)[C@H]4O[C@@H]4O[C@H](CO)[C@@H](O)[C@H](O)[C@H]4O)C(C)(C)[C@@H]3CC[C@]12C [GINSENOSIDE RB3]"
  viability at 100 µM / %: 95.1

The measurements presented in this section are drawn from ChEMBL document CHEMBL3351906.
